# System: OVCAR-5 ovarian
# assayRemarks: NCI-60 one-dose screen, 48 h
# testConditions: 10 µM unless noted
The panel holds about 83,000 compounds, 20% with a hit somewhere; the sample as a whole holds those more often. The source made the active and inactive calls. How the source made its calls: active means growth percent below 10; inactive means the rest.
Write down one outcome, taken from active, inactive

Some solved cases for reference:
>  <molecule>
C(=C1c2ccccc2-c2ccccc21)c1ccncc1

>  <labelValue>
inactive

$$$$
>  <molecule>
Cc1ccc(-c2cc(-c3ccccc3)n(-c3ccccc3)n2)cc1

>  <labelValue>
inactive

$$$$

(Q) # lookup: test call for Cc1nn(-c2nc3ccccc3s2)c(C)c1Oc1ccccc1O
(A) inactive

(Q) What do you get for C[C@H]1c2cccc(O)c2C(O)=C2C(=O)[C@]3(O)C(O)=C(C(N)=O)C(=O)[C@@H](N(C)C)[C@@H]3[C@@H](O)[C@@H]21 ?
(A) inactive

(Q) What do you get for COc1cc(/C=N/NC(=O)c2ccc(C(F)(F)F)nc2Nc2cc(Cl)ccc2C)cc(OC)c1OC ?
(A) inactive

(Q) What do you get for CN[C@@H]1C(OC2[C@H](O[C@H]3[C@H](O)[C@@H](O)[C@H](N=C(N)N)[C@@H](O)[C@@H]3N=C(N)N)OC(C)[C@]2(O)CO)OC(CO)C(O)C1O (some centres not stated) ?
(A) inactive

(Q) What do you get for CCN(CC)CCOCC[C@H]1CC[C@H]2[C@@H]3[C@H](C)Cc4cc(OS(N)(=O)=O)ccc4[C@H]3CC[C@]12C ?
(A) active

----------
# System: MDA-MB-435 melanoma
# assayRemarks: NCI-60 one-dose screen, 48 h
# testConditions: 10 µM unless noted
Compounds without any hit were thinned out: in the full panel of roughly 83,000, 20% have a hit. Active and inactive are the calls of the source. The calls were made as follows: active = growth percent below 10; inactive = the rest.
Write down one outcome, taken from True = active, False = inactive

Some solved cases for reference:
>  <compound>
N/C(=N\C(N)=N\c1nc2ccccc2s1)c1ccnc(Cl)c1

>  <testedTarget>
MDA-MB-435 melanoma

>  <labelValue>
True

$$$$
>  <compound>
O=C(O)CCC(=O)OC[C@@H](NC(=O)C(Cl)Cl)[C@H](O)c1ccc([N+](=O)[O-])cc1

>  <testedTarget>
MDA-MB-435 melanoma

>  <labelValue>
False

$$$$
>  <compound>
NC(=O)NS(=O)(=O)c1ccc(N2N=C(C(F)(F)F)CC2c2cc(C(F)(F)F)cc(C(F)(F)F)c2)cc1 (stereo not drawn)

>  <testedTarget>
MDA-MB-435 melanoma

>  <labelValue>
False

$$$$
>  <compound>
COc1cccc(/C=N\NC(=O)c2ccncc2)c1O

>  <testedTarget>
MDA-MB-435 melanoma

>  <labelValue>
False

$$$$
>  <compound>
FC(F)(F)c1ccc(-c2cnc(-c3nn[nH]n3)nc2NC2CCCCCC2)cc1

>  <testedTarget>
MDA-MB-435 melanoma

>  <labelValue>
False

$$$$
>  <compound>
CCN1CCN(c2nc(NNC(=O)Cc3ccccc3)nc(N3CCN(C(c4ccccc4)c4ccccc4)CC3)n2)CC1

>  <testedTarget>
MDA-MB-435 melanoma

>  <labelValue>
True

$$$$

(Q) # lookup: test call for c1ccc2c(-c3nc4ccccc4[nH]3)cccc2c1
(A) True

(Q) What do you get for CCOC(=O)/C=C1/SC(=Nc2ccc(C#N)cc2)N(Cc2ccco2)C1=O ?
(A) False

----------
# Tested on: OVCAR-4 ovarian
# assayRemarks: NCI-60 one-dose screen, 48 h (100 = growth as untreated, 0 = no growth, -100 = all killed)
# testConditions: 10 µM unless noted
About 83,000 compounds went through this panel and 20% of them were active in at least one assay; those are over-represented in the sample as a whole.
Here the recorded growth is given for each entry.
Your answer is read as %, so omit the unit and give the number.

Examples with their reported growth follow.
>  <compound>
COc1ccc(-c2cc(-c3nnc(SCC(=O)Nc4ccc(C(C)=O)cc4)n3-c3ccccc3)c3ccccc3n2)cc1OC

>  <measuredValue>
106

$$$$
>  <compound>
COc1ccc(-c2nnc3c4[nH]cnc4ncn23)c(OC)c1

>  <measuredValue>
36.8

$$$$
>  <compound>
O=C1C=CC(=O)N1c1ccccc1N1C(=O)C=CC1=O

>  <measuredValue>
116

$$$$
>  <compound>
CCN1CCN(c2nc(NNC(=O)Cc3ccccc3)nc(N3CCN(C(c4ccccc4)c4ccccc4)CC3)n2)CC1

>  <measuredValue>
86.6

$$$$
>  <compound>
CNCCCn1c2c(c3ccc(F)cc3c1=O)C(=O)c1cc(OC)cnc1-2

>  <measuredValue>
-5.91

$$$$

(Q) # growth lookup, item C#C[C@]1(O)CCC2C3CCc4cc(O)ccc4C3CC[C@@]21C (some centres undefined)
(A) 66.8

(Q) What do you get for Cc1cc(Br)c(C)cc1Br ?
(A) 103

----------
# System: BT-549 breast
# assayRemarks: NCI-60 one-dose screen, 48 h (100 = growth as untreated, 0 = no growth, -100 = all killed)
# testConditions: 10 µM unless noted
# Experimental: Growth inhibition of the BT-549 human tumor cell line is measured as a screen for anti-cancer activity. Cells are grown in 96 well plates and exposed to the test compound for 48 hours. Compounds are tested at a single concentration, which is 10^-5 M for most compounds. The reported endpoint is percent growth (GI% or GIPRCNT), where numbers from 0 - 100% represent growth inhibition, and numbers from -100% - 0 represent cell death. For example, a value of 40 represents 60% growth inhibition. […]
The panel holds about 83,000 compounds, 20% with a hit somewhere; the sample as a whole holds those more often.
endpoint: growth (%)
Your answer is read as %, so omit the unit and give the number.

Examples with their reported growth follow.
>  <molecule>
CN(C)c1ccc(-n2nc3ccccc3n2)cc1

>  <quantityUnit>
%

>  <growth>
91.6

$$$$
>  <molecule>
c1ccc(N2c3nc4ccccc4cc3Sc3cc4ccccc4nc32)nc1

>  <quantityUnit>
%

>  <growth>
93.2

$$$$
>  <molecule>
O=C(NCCNC(=O)Oc1cccc2ccccc12)Oc1cccc2ccccc12

>  <quantityUnit>
%

>  <growth>
105

$$$$
>  <molecule>
CN1CCC[C@@H]1CCO[C@](C)(c1ccccc1)c1ccc(Cl)cc1

>  <quantityUnit>
%

>  <growth>
69.1

$$$$
>  <molecule>
CCN1CC2=C(Nc3nc(SC)[nH]c(=O)c3C2c2cc(OC)c(OC)c(OC)c2)/C(=C/c2cc(OC)c(OC)c(OC)c2)C1 (centres undefined)

>  <quantityUnit>
%

>  <growth>
102

$$$$
>  <molecule>
CCOc1cc(/C=C/C(=O)C(C(=O)/C=C/c2ccc(OC(=O)CNc3nc4ccccc4[nH]3)c(OCC)c2)C(=O)CNc2nc3ccccc3[nH]2)ccc1OC(=O)CNc1nc2ccccc2[nH]1

>  <quantityUnit>
%

>  <growth>
-31.3

$$$$

(Q) # growth lookup, item Nc1ccccc1-c1ccn[nH]1
(A) 91.2

(Q) What do you get for Cc1nn2c(/C=C3/C(=O)Nc4cc(Cl)ccc43)c(-c3ccccc3)nc2s1 ?
(A) 15.4

(Q) What do you get for NS(=O)(=O)N(c1cc(C(F)(F)F)cc(C(F)(F)F)c1)C1CCN(Cc2ccc(C(F)(F)F)cc2)CC1 ?
(A) 37.4

----------
# Test system: NCI-H322M lung
# assayRemarks: NCI-60 one-dose screen, 48 h (100 = growth as untreated, 0 = no growth, -100 = all killed)
# testConditions: 10 µM unless noted
About 83,000 compounds went through this panel and 20% of them were active in at least one assay; those are over-represented in the sample as a whole.
Binary call on growth with cut-off 80%: strictly below means met, and equality or higher means not met.

Some solved cases for reference:
>  <smilesText>
COc1ccc(/C=C2\CCc3ccccc3C2=O)cc1

>  <labelValue>
not met

$$$$
>  <smilesText>
Nc1ccc2c(c1Br)Cc1ccccc1-2

>  <labelValue>
not met

$$$$
>  <smilesText>
COc1cc(OC)c2c(c1Cl)O[C@]1(C2=O)C(OCc2ccccc2)=CC(=O)C[C@H]1C

>  <labelValue>
met

$$$$

(Q) Dear colleague, could you confirm whether growth of CCN1CCN(c2nc(NNC(=O)Cc3ccccc3)nc(N3CCN(C(c4ccccc4)c4ccccc4)CC3)n2)CC1 falls below 80%? Thanks.
(A) not met

(Q) What do you get for CCSc1ncc(Br)c(Sc2nc(N)nc3nc[nH]c23)n1 ?
(A) not met

(Q) What do you get for CCOC(=O)Nc1ccc2c3c(cccc13)-c1ccccc1-2 ?
(A) met

----------
Here the recorded growth is given for each entry.
# Tested on: OVCAR-5 ovarian
# assayRemarks: NCI-60 one-dose screen, 48 h (100 = growth as untreated, 0 = no growth, -100 = all killed)
# testConditions: 10 µM unless noted
Compounds without any hit were thinned out: in the full panel of roughly 83,000, 20% have a hit.
Your answer is read as %, so omit the unit and give the number.

(Q) # growth lookup, item CSc1nc(-c2ccc(O)cc2O)c2c(=O)[nH]c(Nc3ccc(S(=O)(=O)Nc4nc(C)cc(C)n4)cc3)nc2n1
(A) 90

(Q) What do you get for CCOC(=O)c1sc(NC(=O)COc2ccc(/C=C3\CCc4cc(OC)ccc4C3=O)cc2)nc1C ?
(A) 103

(Q) What do you get for Nc1nc2c(c(=O)[nH]1)C1(C(=O)Nc3ccccc31)c1c(nc(N)[nH]c1=O)N2 ?
(A) 112

(Q) What do you get for O=C(CN1CCN(c2ccc(Cl)cc2)CC1)N1CCN(c2nnc(-c3ccc(Cl)cc3)c(-c3ccc(Cl)cc3)n2)CC1 ?
(A) 103

(Q) What do you get for C[C@]12CCC(=O)C=C1CC[C@H]1[C@@H]3C[C@@H](O)[C@](O)(C(=O)CO)[C@@]3(C)C[C@H](O)[C@@]12F ?
(A) 86.7
